Kindly state TGI for each of the entries shown.
Tested on: OVCAR-8 ovarian
Assay: NCI tumour cell line growth inhibition, 48 h

Task item: # value lookup — system OVCAR-8 ovarian, readout TGI, item "O=C(O)CN1C=C(C(=O)c2cc3ccccc3n2S(=O)(=O)c2ccccc2)CCC1"
Reply: > 100 µM

Task item: GET /values?readout=TGI&system=OVCAR-8 ovarian&item= Cc1c(Cl)cccc1NC(=O)C(=O)C(C(=O)c1ccccc1-c1ccccc1)C1OC(=O)c2ccccc21 (stereo not drawn)
Reply: > 100 µM

Task item: Reported TGI for OVCAR-8 ovarian, given "COc1ccc(N=N/C(=N/NC(=O)c2ccc(C)cc2)c2ccc(N(CCC#N)CCC#N)cc2OC)cc1" ?
Reply: > 100 µM

Values from PubChem BioAssay (NCI)
